Cited source for all entries: PubChem BioAssay (NCI)

For each of the molecules below, state its GI50.
# System: CAKI-1 renal
# assay_method_text: NCI tumour cell line growth inhibition, 48 h

-- ask Annotate the molecule COc1cc(C(=O)Nc2ccc(-c3nc4ccccc4[nH]3)cc2)cc(OC)c1OC with its measured GI50.
-- reply 10900 nM

-- ask Annotate the molecule COc1ccc([C@H]2c3[nH]c4ccccc4c3C[C@H]3C(=O)N(CCCCCCC(=O)NO)CC(=O)N23)cc1 with its measured GI50.
-- reply 1680 nM

-- ask Annotate the molecule COc1ccc(-c2nc3sccn3c2/C=C/C(=O)c2cc(OC)c(OC)c(OC)c2)cc1 with its measured GI50.
-- reply 2020 nM
